biological target: human recombinant H-PGDS (Homo sapiens, UniProt O60760); experiment: Fluorescence Intensity h-PGDS TBA Enzyme Assay; assay type: biochemical; details: 1:175,000 human recombinant H-PGDS, highest inhibitor concentration typically 1 μM
Sequence (O60760 whole entry): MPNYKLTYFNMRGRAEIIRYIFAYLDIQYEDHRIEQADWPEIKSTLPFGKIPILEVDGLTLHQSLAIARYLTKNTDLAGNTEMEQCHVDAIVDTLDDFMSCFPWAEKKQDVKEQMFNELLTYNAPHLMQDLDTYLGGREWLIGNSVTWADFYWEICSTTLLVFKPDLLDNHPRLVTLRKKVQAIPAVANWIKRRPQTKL
Rule: IC50 below 0.07 µM gives True. Equal to or above 0.07 µM gives False.

MOLECULE: Cc1ccn(CCNC(=O)c2ccc(-c3cccc(F)c3)nc2)n1 [Example 92]
CLASS_LABEL: True
--
MOLECULE: O=C(NCCN1CCOC1=O)c1ccc(-c2ccccc2)nc1 [Example 359]
CLASS_LABEL: True
--
MOLECULE: CCCCCNC(=O)c1ccc(-c2ccccc2)nc1 [Example 381, N-Pentyl-6-phenylnicotinamide]
CLASS_LABEL: True
--
MOLECULE: CCOC(=O)CC(NC(=O)c1ccc(-c2cccc(C)c2)nc1)c1ccc(OC)cc1 (stereo not drawn) [Example 255]
CLASS_LABEL: True
--
MOLECULE: O=C(NCC1(O)CCCC1)c1ccc(-c2cccc(F)c2)nc1 [Example 140]
CLASS_LABEL: True
--
MOLECULE: Cc1cccc(-c2ccc(C(=O)NCC3CCCCO3)cn2)c1 (stereo not drawn) [Example 239]
CLASS_LABEL: True
--
MOLECULE: O=C(NCC1CC2(CCN(c3cnccn3)CC2)CO1)c1ccc(-c2cccc(F)c2)nc1 (stereo not drawn) [Example 54]
CLASS_LABEL: True
--
MOLECULE: Cc1cccc(-c2ccc(C(=O)NCc3cc(F)cc4c3OCOC4)cn2)c1 [Example 312]
CLASS_LABEL: True
--
MOLECULE: Cc1ccc(CNC(=O)c2ccc(-c3cccc(C)c3)nc2)cc1 [Example 251]
CLASS_LABEL: False
--
MOLECULE: CCCCNC(=O)c1ccc(-c2cccc(OC)c2)nc1 [Example 289, N-Butyl-6-(3-methoxyphenyl)nicotinamide]
CLASS_LABEL: False
--
MOLECULE: O=C(NCC1CC2(CCN(Cc3ccccn3)CC2)CO1)c1ccc(-c2cccc(F)c2)nc1 (stereo not drawn) [Example 53]
CLASS_LABEL: True
--
MOLECULE: O=C(NCC(c1ccccc1Cl)N1CCOCC1)c1ccc(-c2cccc(F)c2)nc1 (stereo not drawn) [Example 445]
CLASS_LABEL: False
--
MOLECULE: O=C(NC1CCCOC1)c1ccc(-c2cccc(F)c2)nc1 (stereo not drawn) [Example 63]
CLASS_LABEL: True
--
MOLECULE: O=C(NCCCn1nnc2ccccc21)c1ccc(-c2cccc(F)c2)nc1 [Example 5]
CLASS_LABEL: True
--
MOLECULE: CC(NC(=O)c1ccc(-c2cccc(F)c2)nc1)c1ccncn1 (stereo not drawn) [Example 443]
CLASS_LABEL: False
--
MOLECULE: O=C(NCCCc1ccccn1)c1ccc(-c2cccc(F)c2)nc1 [Example 118]
CLASS_LABEL: True
--
MOLECULE: N#CC(NC(=O)c1ccc(-c2cccc(F)c2)nc1)C(=O)NCCN1CCOCC1 (stereo not drawn) [Example 212]
CLASS_LABEL: False
--
MOLECULE: O=C(NCC(O)c1ccccc1F)c1cnc(-c2cccc(F)c2)c(Cl)c1 (stereo not drawn) [Example 549]
CLASS_LABEL: True

* * *

target: human recombinant H-PGDS (Homo sapiens); assay: Fluorescence Intensity h-PGDS TBA Enzyme Assay; assay type: biochemical; conditions: 1:175,000 human recombinant H-PGDS, highest inhibitor concentration typically 1 μM
pIC50: −log10 of the molar value.
Returns true (1) if the recorded pIC50 is greater than or equal to 7, and false (0) otherwise.

COMPOUND: O=C(NCc1ccc(Cl)c(Cl)c1)c1ccc(-c2ccccc2)nc1
CLASS_LABEL: true (1)

COMPOUND: O=C(NCCC1CCC(=O)N1Cc1ccccc1)c1ccc(-c2cccc(F)c2)nc1 (stereo not shown)
CLASS_LABEL: true (1)

COMPOUND: CC[C@H](CC#N)NC(=O)c1ccc(-c2cccc(F)c2)nc1
CLASS_LABEL: true (1)

COMPOUND: CCOC(=O)C(CNC(=O)c1ccc(-c2ccccc2)nc1)C1CCCC1 (stereo not shown)
CLASS_LABEL: true (1)

COMPOUND: NC(=O)[C@H](Cc1ccccc1)NC(=O)c1ccc(-c2cccc(F)c2)nc1
CLASS_LABEL: true (1)

COMPOUND: COc1cccc(-c2ccc(C(=O)NCCN3CCCCC3=O)cn2)c1
CLASS_LABEL: false (0)

COMPOUND: O=C(NCC1CN(CCc2ccccn2)C(=O)CO1)c1ccc(-c2cccc(F)c2)nc1 (stereo not shown)
CLASS_LABEL: true (1)

COMPOUND: CN(C)CCOc1ccc(CNC(=O)c2cnc(-c3cccc(F)c3)c(Cl)c2)cc1
CLASS_LABEL: true (1)

COMPOUND: O=C(NCc1ccc(F)cc1)c1ccc(-c2ccc(F)cc2)nc1
CLASS_LABEL: false (0)

COMPOUND: O=C(NCCN1CCCC1=O)c1ccc(-c2ccc(F)cc2)nc1
CLASS_LABEL: false (0)

COMPOUND: COc1ccc(CNC(=O)c2ccc(-c3cccc(OC)c3)nc2)cc1
CLASS_LABEL: false (0)

COMPOUND: COC(=O)CC(NC(=O)c1ccc(-c2ccc(F)cc2)nc1)c1cccnc1 (stereo not shown)
CLASS_LABEL: false (0)

COMPOUND: O=C(NCCCN1CCCC1=O)c1ccc(-c2ccc(F)cc2)nc1
CLASS_LABEL: false (0)

* * *

target: human recombinant H-PGDS (Homo sapiens, UniProt O60760); test: Fluorescence Intensity h-PGDS TBA Enzyme Assay; assay type: biochemical; settings: 1:175,000 human recombinant H-PGDS, highest inhibitor concentration typically 1 μM
In this section we review reported IC50 values for a set of compounds.
RESULT_TYPE: IC50 (nM)

COMPOUND: O=C(NCCN1CCCC1=O)c1ccc(-c2ccccc2)nc1 [Example 351]
RESULT_TYPE: IC50
LIMIT_OPERATOR: =
EXPERIMENTAL_VALUE: 25.4

COMPOUND: O=C(NCc1ccc(Br)cc1)c1ccc(-c2ccc(F)cc2)nc1 [Example 505]
RESULT_TYPE: IC50
LIMIT_OPERATOR: ≥
EXPERIMENTAL_VALUE: 1000

COMPOUND: COCCn1cnnc1CNC(=O)c1ccc(-c2cccc(F)c2)nc1 [Example 23]
RESULT_TYPE: IC50
LIMIT_OPERATOR: =
EXPERIMENTAL_VALUE: 106

COMPOUND: O=C(NCc1coc(-c2ccc(F)cc2)n1)c1ccc(-c2cccc(F)c2)nc1 [Example 535]
RESULT_TYPE: IC50
LIMIT_OPERATOR: =
EXPERIMENTAL_VALUE: 5.56

COMPOUND: O=C(CNC(=O)c1ccc(-c2ccccc2)nc1)OCc1ccccc1 [Example 367]
RESULT_TYPE: IC50
LIMIT_OPERATOR: =
EXPERIMENTAL_VALUE: 6.6

* * *

Catalogue of log10 IC50 readings, one per entry.
target: human recombinant H-PGDS (Homo sapiens); assay: Fluorescence Intensity h-PGDS TBA Enzyme Assay; format: biochemical; conditions: 1:175,000 human recombinant H-PGDS, highest inhibitor concentration typically 1 μM
RESULT_TYPE: log10 IC50 (log10 of the value in nM)

COMPOUND: Cc1cccc(-c2ccc(C(=O)NCCC3CCN(C)CC3)cn2)c1
log10 IC50: 2.00

COMPOUND: O=C(NCCc1ccc(O)cc1)c1ccc(-c2cccc(F)c2)nc1
log10 IC50: 0.73

COMPOUND: Cc1ccccc1CNC(=O)c1ccc(-c2ccc(F)cc2)nc1
log10 IC50: 2.14

COMPOUND: O=C(NCCN1CCCCC1)c1ccc(-c2cccc(F)c2)nc1
log10 IC50: 1.08

COMPOUND: Cc1c[nH]c(CCNC(=O)c2ccc(-c3cccc(F)c3)nc2)n1
log10 IC50: 1.60

COMPOUND: O=C(NC1CCN(Cc2ccc(Cl)cc2)C1=O)c1ccc(-c2ccccc2)nc1 (stereo not drawn)
log10 IC50: 1.05

COMPOUND: O=C(NCCN1CCN(Cc2ccccc2)CC1)c1ccc(-c2cccc(F)c2)nc1
log10 IC50: 1.52

COMPOUND: CC(O)CNC(=O)c1ccc(-c2ccc(F)cc2)nc1 (stereo not drawn)
log10 IC50: 3.00

COMPOUND: Cc1ccc(CN2CCC(NC(=O)c3ccc(-c4cccc(C)c4)nc3)C2=O)cc1 (stereo not drawn)
log10 IC50: 1.79
